# Tested on: BUB1
# SETUP CONDITIONS: concentration: 1 μM, replicates: in singlicate; n = 1;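 also: KINOMEscan kinase panel screen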
PARAMETER: %Inh (%)
Report only the number, with the unit % understood.

These recorded examples may help you get a feel for the data.
>  <COMPOUND>
Cn1ccc2ncnc(Oc3ccc(NC(=O)Nc4ccncc4)c(Cl)c3)c21

>  <SYSTEM TESTED>
BUB1

>  <UNIT INFO>
%

>  <RECORDED MEASUREMENT>
11

$$$$
>  <COMPOUND>
Cc1nnc(-c2ccc(C)c(-c3ccc(C(=O)Nc4ccc(NS(C)(=O)=O)cc4)cc3)c2)o1

>  <SYSTEM TESTED>
BUB1

>  <UNIT INFO>
%

>  <RECORDED MEASUREMENT>
35

$$$$
>  <COMPOUND>
Cc1cccc(-c2nc(Nc3ccc4ncsc4c3)c3ccccc3n2)n1

>  <SYSTEM TESTED>
BUB1

>  <UNIT INFO>
%

>  <RECORDED MEASUREMENT>
47

$$$$

// next entry
Input CN1c2ccc(CNc3ccc(F)cc3)cc2-c2c(cnn2C)S1(=O)=O . Output %Inh: 0

* * *

The following molecules are listed with their measured %Inh values.
# Test system: TSSK1B
# SETUP CONDITIONS: concentration: 1 μM, replicates: in singlicate; n = 1
Expressed in %, but write only the number.

Record CSc1ccc(-c2cc3ncnc(SCC(=O)O)c3s2)cc1 . Reported %Inh: 0

* * *

# Tested on: PHKG2
# SETUP CONDITIONS: concentration: 1 μM, replicates: in singlicate; n = 1
Just a reminder that ties go to criterion not met: only %Inh strictly below 5% counts as criterion met.

Previously resolved entries follow.
>  <COMPOUND>
NCC(NC(=O)c1cc(-c2cn[nH]c2)c(-c2ccnc3[nH]ccc23)s1)c1ccccc1.O=C(O)C(F)(F)F.O=C(O)C(F)(F)F (centres unmarked) [GSK1325775]

>  <CLASSIFICATION>
criterion not met

$$$$
>  <COMPOUND>
CC(=O)Nc1ccc(COc2ccc(Nc3ccnc4cc(-c5ccccn5)ccc34)cc2)cc1.Cl [GW440148]

>  <CLASSIFICATION>
criterion met

$$$$
>  <COMPOUND>
COc1ccc(CNC(=O)NC2CCN(c3ccnc(Nc4ccc(OC)cc4)n3)C2)cc1 (centres unmarked) [GSK1379727]

>  <CLASSIFICATION>
criterion met

$$$$
>  <COMPOUND>
CC(C)(C)n1cnc2c(N)ncnc21 [SKF-97359]

>  <CLASSIFICATION>
criterion not met

$$$$
>  <COMPOUND>
COc1cc2c(cc1OCCN1CCN(C)CC1)ncc1c3ccc(C#N)cc3[nH]c21

>  <CLASSIFICATION>
criterion not met

$$$$

In: A record lists COc1ccc(Nc2nccc(N3CCC(NC(=O)Nc4cccc(C(C)=O)c4)C3)n2)cc1 (centres unmarked) [GSK1379731] . Is its %Inh below 5%?
Out: criterion met

In: Does the reported %Inh of c1ccc(-c2n[nH]cc2-c2ccnc3ccccc23)nc1 [GW271431] stay below 5%?
Out: criterion met

* * *

# Test system: MEK2
# Construct: gene MAP2K2
# SETUP CONDITIONS: concentration: 1 μM, replicates: in singlicate; n = 1
%Inh values for the molecules below.
Reply numerically in %, unit not repeated.

These recorded examples may help you get a feel for the data.
>  <MOLECULE>
Cc1nnc(-c2ccc3ncc(-c4ccc(S(C)=O)cc4)n3c2)o1 (stereo not drawn)

>  <%Inh (%)>
9

$$$$
>  <MOLECULE>
CN1c2ccc(NCc3ccc(F)cc3)cc2-c2c(cnn2C)S1(=O)=O

>  <%Inh (%)>
27

$$$$
>  <MOLECULE>
CC(=O)Nc1ccc(COc2ccc(Nc3ccnc4cc(-c5ccccn5)ccc34)cc2)cc1.Cl [GW440148]

>  <%Inh (%)>
70

$$$$
>  <MOLECULE>
Cl.Nc1ncnc2occ(-c3ccc(NC(=O)Nc4cc(C(F)(F)F)ccc4F)cc3)c12 [SB-707548]

>  <%Inh (%)>
57

$$$$
>  <MOLECULE>
Fc1ccc(-c2nn3c(OCC(F)(F)F)cccc3c2-c2ccncc2)cc1 [GW514784]

>  <%Inh (%)>
0

$$$$

%Inh measured on Cc1nnc(-c2ccc(C)c(-c3ccc(C(=O)Nc4ccc(NS(C)(=O)=O)cc4)cc3)c2)o1 [GW702865] = 7

Entry COc1cc2ncn(-c3cc(OCc4sccc4Cl)c(C(N)=O)s3)c2cc1OC [GSK448459] , %Inh reported as 0

%Inh recorded for this molecule, O=C(c1ccc(-c2cc(-c3c[nH]nc3-c3ccccn3)ccn2)cc1)N1CCOCC1 [GW812171] , is 46

Reported %Inh ( N#Cc1c(N2CCOCC2)sc(-c2ccn[nH]2)c1-c1ccc(Cl)cc1 ) = 9

* * *

# Tested on: FAK
# Construct: gene PTK2
# SETUP CONDITIONS: concentration: 1 μM, replicates: in singlicate; n = 1
PARAMETER: %Inh (%)
Just the number please, in %, no unit attached.

Some solved cases for reference:
>  <COMPOUND>
Fc1ccc(-c2ncn(CCCN3CCOCC3)c2-c2cccnc2)cc1

>  <UNIT INFO>
%

>  <%Inh>
0

$$$$
>  <COMPOUND>
O=C1Cc2cc(Nc3nc(NCc4cccc(S(=O)(=O)C(F)(F)F)c4)ncc3C(F)(F)F)ccc2N1

>  <UNIT INFO>
%

>  <%Inh>
0

$$$$
>  <COMPOUND>
NS(=O)(=O)c1cccc(-c2ccc3ncc(N4CCOCC4)nc3c2)c1

>  <UNIT INFO>
%

>  <%Inh>
0

$$$$
>  <COMPOUND>
Cc1ccc(C(=O)NCC(N)=O)cc1-n1c(C)cc(OCc2ccc(F)cc2F)c(Br)c1=O

>  <UNIT INFO>
%

>  <%Inh>
7

$$$$
>  <COMPOUND>
COc1ccc(S(=O)(=O)NC2CCN(c3cc(C)nc(Nc4cccc(C#N)c4)n3)CC2)cc1.O=C(O)C(F)(F)F

>  <UNIT INFO>
%

>  <%Inh>
0

$$$$
>  <COMPOUND>
CSc1ccc(-c2cc3ncnc(SCC(=O)O)c3s2)cc1

>  <UNIT INFO>
%

>  <%Inh>
0

$$$$
>  <COMPOUND>
Cc1cccc(-c2nc(-c3ccc(S(C)(=O)=O)cc3)sc2-c2ccncc2)c1

>  <UNIT INFO>
%

>  <%Inh>
4

$$$$
>  <COMPOUND>
COCCNC(=O)c1ccc(-c2cc(C(=O)NC3CC3)cc(F)c2C)cc1

>  <UNIT INFO>
%

>  <%Inh>
3

$$$$
>  <COMPOUND>
CN(C(=O)c1ccc(-c2cc(-c3c[nH]nc3-c3ccccn3)ccn2)cc1)C1CCOCC1

>  <UNIT INFO>
%

>  <%Inh>
0

$$$$
>  <COMPOUND>
Cc1cccc(Cn2ccn3c(=O)cc(N4CCOCC4)nc23)c1

>  <UNIT INFO>
%

>  <%Inh>
0

$$$$

Sample NS(=O)(=O)CCc1cccc(Nc2nccc(-c3c(-c4cccc(NC(=O)c5c(F)cccc5F)c4)nn4ccccc34)n2)c1 ; %Inh observed: 4

Looking up COC(=O)Nc1nc2cc(Oc3ccc(NC(=O)Nc4cc(F)ccc4F)cc3)ccc2[nH]1.Cl , I see its %Inh listed as 0

Reported %Inh ( O=c1cc(N2CCOCC2)nc2n(Cc3cccc(C(F)(F)F)c3)ccn12 ) = 0

Field %Inh (entry Cc1nnc(-c2ccc3occ(-c4ccc(C(C)O)cc4)c3c2)o1 (centres unmarked) ) reads 0

Documented %Inh of COc1cc2c(cc1OCCN1CCN(C)CC1)ncc1c3ccc(C#N)cc3[nH]c21 : 27

Lookup result for c1ccc(-c2cc(-c3c[nH]nc3-c3ccccn3)ccn2)cc1 ; measured %Inh: 6

Looking up Fc1ccc(-c2ncn(CCCN3CCOCC3)c2-c2ccccn2)cc1 , I found its %Inh recorded as 29

%Inh for Cc1c2ccc(N(C)c3ccnc(Nc4cccc(S(N)(=O)=O)c4)n3)cc2nn1Cc1ccccc1.Cl.Cl is 0

In plain terms, CC(C)Oc1ccc2c(-c3ccnc(Nc4ccc(N5CCN(C)CC5)cc4)n3)cnn2n1 has a documented %Inh of 0

Field %Inh (entry O=C1NC(=O)C(N2CCc3ccccc32)=C1c1cccc(Cl)c1 ) reads 0

Just so you know, measured %Inh for CC(C)(CN)c1nc(-c2ccc(Cl)c(O)c2)c(-c2ccncc2)[nH]1.O=C(O)C(F)(F)F came out at 0

Form field %Inh, entry CCn1cnc2c(N)ncnc21 : 7

Input Cc1c(Cn2c(C)nn3c(=O)cc(N4CCOC(C)C4)nc23)cccc1C(F)(F)F (centres unmarked) . Output %Inh: 0

For reference, reported %Inh for CC(=O)Nc1ccc(COc2ccc(Nc3ccnc4cc(-c5ccccn5)ccc34)cc2)cc1.Cl stands at 1

Lab note: c1ccc(-c2n[nH]cc2-c2ccnc3ccccc23)nc1 gave %Inh of 0

Per the record, CC(C)(C)n1cnc2c(N)ncnc21 has %Inh of 0

Please fill in: %Inh reported for Cl.Nc1ncnc2occ(-c3ccc(NC(=O)Nc4cc(C(F)(F)F)ccc4F)cc3)c12 = 93.7
